Each item that follows carries a reported Cl_pred (L/kg).
protocol.details: Pharmacokinetic experiment in rats
Format: in vivo, Sprague-Dawley rats
Parameters: unit not given here
reported.conditions: rat, PO 10 mg/kg
Lab note: record the figure alone, no unit after it.

Field: example entries. Status: answers known.
[
  {
    "compound": "C[C@H]1Nc2ccn3ncc(c3n2)NC(=O)CCOc2ccc(F)cc21 [Compound T-1]",
    "Cl_pred (L/kg)": 0.77
  },
  {
    "compound": "C[C@H]1CC(=O)Nc2cnn3ccc(nc23)N[C@H](C)c2cc(F)ccc2O1 [Compound T-2-A]",
    "Cl_pred (L/kg)": 0.83
  },
  {
    "compound": "O=C1CCOc2ccc(F)cc2[C@H]2CCCN2c2ccn3ncc(c3n2)N1 [Compound L-1-A]",
    "Cl_pred (L/kg)": 0.92
  }
]

Now, please, on to the next compound.
Data request: Recorded Cl_pred (L/kg) for C[C@H]1CC(=O)Nc2cnn3ccc(nc23)N2CCC[C@@H]2c2cc(F)ccc2O1 [Compound L-2-A] , please?
Data returned: 2.44
